Target system: HLA-B*0702 (Homo sapiens, UniProt P01889)
Test description: Cell-based HLA class I-peptide concentration-based stability assay (TAP-deficient mono-allelic 721.221 cells)
Measurement parameters: HLA B*07 mono-allelic TAP-deficient 721.221 cells; peptide 100 uM; relative anti-HLA MFI
Catalogue of Relative HLA MFI (100 uM) readings, one per entry.
Measured attribute: Relative HLA MFI (100 uM)

>>> recorded_measurement("HPRVSSEVHI [HI10]")
0.6565
>>> recorded_measurement("HPVHAGPIA [HA9]")
0.8359
>>> recorded_measurement("IPRRIRQGL [IL9]")
1
>>> recorded_measurement("RGPGRAFVTI [RI10]")
0.4954
>>> recorded_measurement("SPAIFQSSM [SM9]")
0.1337
>>> recorded_measurement("SPRTLNAWV [SV9]")
0.114
>>> recorded_measurement("GAFDLSFFL [GL9]")
0.2918
>>> recorded_measurement("FPVTPQVPLR [FR10]")
0.5897
>>> recorded_measurement("FPRIWLHGL [FL9 (Vpr)]")
0.7264
>>> recorded_measurement("TPGPGVRYPL [TL10]")
0.1231
>>> recorded_measurement("RPAEPVPLQL [RL10]")
0.848
>>> recorded_measurement("FPVTPQVPL [FL9 (Nef)]")
0.9848

These measurements were taken from paper PMC8293625.
